# Measured on: human lysosomal α-mannosidase (α-hLM) (Homo sapiens (Human), UniProt O00754)
# Sequence (O00754 50-1011): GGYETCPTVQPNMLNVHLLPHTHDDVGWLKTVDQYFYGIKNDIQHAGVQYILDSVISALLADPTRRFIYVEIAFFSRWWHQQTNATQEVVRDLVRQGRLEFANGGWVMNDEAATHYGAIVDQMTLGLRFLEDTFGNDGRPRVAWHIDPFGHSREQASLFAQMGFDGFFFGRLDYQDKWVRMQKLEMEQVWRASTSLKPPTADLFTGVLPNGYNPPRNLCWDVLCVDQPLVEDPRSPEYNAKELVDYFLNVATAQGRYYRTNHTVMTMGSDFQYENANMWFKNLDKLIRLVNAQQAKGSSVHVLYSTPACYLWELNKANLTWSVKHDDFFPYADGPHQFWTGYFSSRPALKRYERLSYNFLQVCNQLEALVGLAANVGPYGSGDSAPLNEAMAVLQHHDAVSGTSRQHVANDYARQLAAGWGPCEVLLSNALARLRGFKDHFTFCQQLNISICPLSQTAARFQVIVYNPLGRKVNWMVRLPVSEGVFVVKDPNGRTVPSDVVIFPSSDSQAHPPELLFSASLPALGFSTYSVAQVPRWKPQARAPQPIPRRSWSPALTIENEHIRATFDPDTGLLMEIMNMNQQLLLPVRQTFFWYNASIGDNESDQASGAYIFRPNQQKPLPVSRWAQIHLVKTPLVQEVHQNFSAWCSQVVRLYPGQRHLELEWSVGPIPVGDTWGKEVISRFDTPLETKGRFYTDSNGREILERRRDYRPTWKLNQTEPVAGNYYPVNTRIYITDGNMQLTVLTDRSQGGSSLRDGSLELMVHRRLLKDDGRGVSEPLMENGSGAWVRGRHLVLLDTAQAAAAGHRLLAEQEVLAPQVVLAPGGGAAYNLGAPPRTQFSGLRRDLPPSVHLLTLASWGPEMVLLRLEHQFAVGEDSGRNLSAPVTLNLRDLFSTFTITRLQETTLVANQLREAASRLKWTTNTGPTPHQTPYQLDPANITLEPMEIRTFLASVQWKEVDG
# maps each entry to its IC50
Mention the unit after the number when you answer.

1. CCC[C@H]1CC[C@H](c2ccc(NC(=S)NC[C@@H]3[C@@H](O)[C@@H](O)[C@H]4[C@H](O)CCCN43)cc2)CC1	14 µM
2. O=C(NC[C@@H]1[C@@H](O)[C@@H](O)[C@H]2[C@H](O)CCCN21)c1ccc(-c2ccccc2)cc1	0.65 µM
3. COc1ccc(NC(=S)NC[C@@H]2[C@@H](O)[C@@H](O)[C@H]3[C@H](O)CCCN32)cc1	0.95 µM

Q: Param readout = IC50; param system = human lysosomal α-mannosidase (α-hLM) (Homo sapiens (Human), UniProt O00754); param query = CCC[C@H]1CC[C@H](c2ccc(C(=O)NC[C@@H]3[C@@H](O)[C@@H](O)[C@H]4[C@H](O)CCCN43)cc2)CC1 ; response: value
Ans: 6.8 µM
